assay: Prodrug conversion in rat liver S9 fraction assessed as […] GST-mediated metformin formation at 10 to 200 uM in presence of 1 mM reduced glutathione by Michaelis-Menten method; format: ADME, subcellular; details: s9, 200 µM
measured endpoint: Km (µM)

compound smiles: CN(C)C(=N)/N=C(\N)NS(=O)(=O)c1ccc(C(F)(F)F)cc1[N+](=O)[O-]
unit descriptor: µM
Km: 106
--
compound smiles: CCC[C@@]1(CCc2ccccc2)CC(O)=C([C@H](CC)c2cccc(NS(=O)(=O)c3ccc(C#N)cn3)c2)C(=O)O1
unit descriptor: µM
Km: 143

###

assay: Retention time of the compound by HPLC method; assay type: physicochemical
measured endpoint: Retention_time (min)

Observe how each entry below is paired with its result.
compound smiles: CN(C)C(=N)/N=C(\N)NS(=O)(=O)c1ccc([N+](=O)[O-])cc1
Retention_time / min: 3
//
compound smiles: CN(C)C(=N)/N=C(\N)NS(=O)(=O)c1ccc(C(F)(F)F)cc1[N+](=O)[O-]
Retention_time / min: 3

[I] CN(C)C(=N)N=C(N)N
[II] CN(C)C(=N)/N=C(\N)NS(=O)(=O)c1ccccc1[N+](=O)[O-]
Q: Endpoint returns whichever of I and II has the numerically higher Retention_time. Your answer should be the label attached to the chosen record.
Result: I
